Item-by-item account of IC50
# SYSTEM UNDER TEST: CDK2/Cyclin E1 complex (Homo sapiens)
# ASSAY OVERVIEW: CDK2 kinase inhibition assay (Caliper/LabChip EZ Reader)
# Assay type: biochemical
# CONDITION CONTEXT: CDK2/Cyclin E1 0.5 nM, ATP 2 mM, 35 min at 27° C.

Give the value of IC50 reported for the following: FC(F)(F)c1cnc(N[C@H]2CCCNC2)nc1-c1c[nH]c2cc(-c3cccc4cnccc34)ccc12 [Compound 344]
0.2 to 5 µM

Give the value of IC50 reported for the following: CS(=O)(=O)c1c(C#N)ccc2c(-c3nc(NC4CCCNC4)ncc3Cl)c[nH]c12 (centres unmarked) [Compound 294]
0.2 to 5 µM

Give the value of IC50 reported for the following: Fc1ccc2[nH]cc(-c3nc(NC4CCCNC4)ncc3Cl)c2c1 (centres unmarked) [Compound 109]
0.2 to 5 µM
